- Tested on: RARb:RXRa (NR concentration 270 nM, RXRa partner concentration 90 nM)
- assay_text: PBM binding z-score (relative to random genomic background probes); higher = stronger binding; sequences stand for … in GC…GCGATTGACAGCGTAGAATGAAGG
Param threshold (2) applies to PBM binding z-score; output Met when value >= threshold, Not met when value < threshold.

>>> df
                     ordered_residues  group_label
0  ACTATTATTTGACTTAGGGCAACCGATACGACGC      Not met
1  GCTGCTAGGGCAACTGATGGTCAGCTAAAGCTCG      Not met
2  GCATATAGGTAATACAAGGTGAAAGCCCGATTGT      Not met
3  TTTATTAGTTGAAGGGCAACCGACGAGTCCGTTT      Not met
4  TCTGCTAGGTCAGTTGGTCAGCAAACGAGCTGCC          Met

Query: Check if PBM binding z-score >= 2 (inclusive). Item: CCTTACGGGTCACGAGGTTACAGCACGACGAGCG
Reply: Met

Query: Check if PBM binding z-score >= 2 (inclusive). Item: TTACCAAGGTGAGCTGAGGTCGATGATCCAACTC
Reply: Not met

====

- Tested on: RXRa homodimer (NR concentration 180 nM)
- assay_text: PBM binding z-score (relative to random genomic background probes); higher = stronger binding; sequences stand for … in GC…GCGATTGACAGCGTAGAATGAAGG
reported_endpoint: PBM binding z-score
Number, no unit, nothing else.

Would you please look over these solved cases?
>>> print(df.to_string())
                     ordered_residues    reported_endpoint  recorded_value
0  TCTTGGAGGACACGAAAGGTCAGAGCTCGACATC  PBM binding z-score            4.25
1  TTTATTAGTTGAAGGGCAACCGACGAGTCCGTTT  PBM binding z-score           0.628
2  GCTAGCAGGCCATTTGGGTCAGTCAATGACGGGC  PBM binding z-score           0.218

Query: Give its PBM binding z-score value. Item: TCTGCTAGTTCAACGATGGTCAGCTAATCTGCTA
Reply: 0.188

Query: Give its PBM binding z-score value. Item: TCTGCTAGGTCAGTTAGTCAGCTAACGAGCTGCC
Reply: 0.813

Query: Give its PBM binding z-score value. Item: TCTATTAGTTGAAGGGCATCCGACGAGTCCGTTT
Reply: 0.598

Query: Give its PBM binding z-score value. Item: CCTCCGAGGACAACAGGAGGTCAGAGCTGCCAGA
Reply: 2.02

====

Quick list: PBM binding z-score per entry.
- System: VDR homodimer (NR concentration 270 nM)
- assay_text: PBM binding z-score (relative to random genomic background probes); higher = stronger binding; sequences stand for … in GC…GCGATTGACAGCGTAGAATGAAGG

Would you please look over these solved cases?
In [3]: df
Out[3]:
                     ordered_residues    reported_endpoint  recorded_value
0  CGTCCAAGGTCAGAAGGTCAGTGAAAGCGACGTG  PBM binding z-score            2.18
1  CGTCGAAGTTCAACTAAGGTAACGTAAAGCACGC  PBM binding z-score            2.88
2  ATACCAAGGTGATCGTGAGGTTGTTGATACTAAC  PBM binding z-score            0.36
3  AGTCAAAGTTCAGGACGAGGTAACATAAAGCACG  PBM binding z-score            2.24
4  TGAGACAGGTGAAGGTAACTCAGGTACGCAGTCG  PBM binding z-score         -0.0182

Query: Give its PBM binding z-score value. Item: CCTAGGAGGACAGAAGGTCAGAGCTGTCCGCTTT
Reply: -0.00238

Query: Give its PBM binding z-score value. Item: AGTCAAAGTTCAGGACGCGGTAACGTAAAGCACG
Reply: 1.79

Query: Give its PBM binding z-score value. Item: CATACTAGGTCAAGAGGTCAAAGTCCGCTTCCCG
Reply: 4.64

Query: Give its PBM binding z-score value. Item: GATACAGGGTCAGCTAGAGACCAGAGTATGGAAA
Reply: 0.881

Query: Give its PBM binding z-score value. Item: TCTTGTAGATCAAAGGTTACGAAAGCCGAAGCCT
Reply: -0.125

Query: Give its PBM binding z-score value. Item: TTACCAAGGTGAGCTGAGGTCTTTGATCCAACTC
Reply: -0.646

Query: Give its PBM binding z-score value. Item: TCTATTAGCTGAAGGGCAACCGACGAGTCCGTTT
Reply: 0.695

====

- System: PXR homodimer (NR concentration 270 nM)
- assay_text: PBM binding z-score (relative to random genomic background probes); higher = stronger binding; sequences stand for … in GC…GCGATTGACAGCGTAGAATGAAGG
Quick list: PBM binding z-score per entry.
Number, no unit, nothing else.

Would you please look over these solved cases?
>>> df
                     ordered_residues  recorded_value
0  ATATGTAAGTTACATCCGGGTCATTCAGGCTATG             2.6
1  TGAATGAGGTTAAAGATCAGGGACCGTGGCGTCG           -0.23
2  TCGAGTAGGTTAGGCGCATTCAGAATGGCGTCGA          -0.715
3  TCGAGTAAGTTAGGGGCATTCAGAATGGCGTCGA          0.0747
4  ACTAGCAGGCAAAGGGTCACTCAAGATTAGTCCG           0.241

Turning to the following sequence.
Query: Give its PBM binding z-score value. Item: ACTAGCAGGCCAAGGGTCACACAAGATTAGTCCG
Reply: 0.101

====

Quick list: PBM binding z-score per entry.
- System: PPARa:RXRa (NR concentration 270 nM, RXRa partner concentration 90 nM)
- assay_text: PBM binding z-score (relative to random genomic background probes); higher = stronger binding; sequences stand for … in GC…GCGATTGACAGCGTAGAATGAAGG
Number, no unit, nothing else.

Would you please look over these solved cases?
>>> df
                     ordered_residues                            assayed_system  recorded_value
0  CCTTCCGGGTCAAGGTTATAGCACGGGTGGTACG  PPARa:RXRa (NR concentration 270 nM, RXRa partner concentration 90 nM)            4.95
1  TGAATGAGGTTAAAGATAAGGGAACGTGGCGTCG  PPARa:RXRa (NR concentration 270 nM, RXRa partner concentration 90 nM)            3.54
2  TCATATAGGTAAAAGGTGAAGGTCGGTGTGGTAA  PPARa:RXRa (NR concentration 270 nM, RXRa partner concentration 90 nM)            5.23
3  TCTAGTTGGTCAAATGTCACACACTCGAAATGCG  PPARa:RXRa (NR concentration 270 nM, RXRa partner concentration 90 nM)            2.93
4  TCTTGTAGATCAATAGAGGTTTAGAAAGTGCGCT  PPARa:RXRa (NR concentration 270 nM, RXRa partner concentration 90 nM)           0.237
5  GGAACGAGGGCATTCGAGATGATAGCATGGCGAT  PPARa:RXRa (NR concentration 270 nM, RXRa partner concentration 90 nM)            1.38

Query: Give its PBM binding z-score value. Item: TAGCCTAGGTCTTGGGCCAGTATACCACGCGAAC
Reply: -0.242

Query: Give its PBM binding z-score value. Item: CGAACTAGGTCAGAACAGGACAGGGAAGGATGAT
Reply: 3.4

====

- Tested on: PPARg DBDmut IVT, anti-PPARg (DBD mutation: PPARg1 K132A/R137A, NR concentration 270 nM)
- assay_text: PBM binding z-score (relative to random genomic background probes); higher = stronger binding; sequences stand for … in GC…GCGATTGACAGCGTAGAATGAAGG
Param threshold (0.3) applies to PBM binding z-score; output t when value >= threshold, f when value < threshold.

In [3]: df
Out[3]:
                     ordered_residues  group_label
0  AATACAGGGTCACTAGGCTAGAGTAGGTACGAAT            t
1  CCTATTAGTTGACCATAAGGGAAACCGAAGCTCG            t
2  GCAGACCGGTGAAACGCAGGTAACTCAGGGTGGC            f
3  AGTCAAAGTTCATATAGGTAACGTAAGATATGCT            t

Query: Check if PBM binding z-score >= 0.3 (inclusive). Item: ACTATCAGTTGACTTAGGGCAACCGATACGACGC
Reply: t

Query: Check if PBM binding z-score >= 0.3 (inclusive). Item: TCGAGTAGGTTACTCGGGGCATTCAGCCAACATA
Reply: f
